# PROCEDURE TEXT: chemical genetic growth profiling, strain panel (AID 1159580);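 note: tested at 20 µM; growth read once vehicle control cultures reached saturation at 30 °C; 1 = growth at the plate median or of vehicle wells; lower values mean less growth of the strain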
# CONDITION SUMMARY: S. cerevisiae deletion strains, growth OD, locus YDR101C, strain arx1
Among all 5,500 compounds or so, about 2,000 (36%) were called active. Not shown: some 18% with an inconclusive outcome. Cut-off read from the data, not from the text of the source: active = normalized growth mostly below about 0.91 (no sharp cut-off); inconclusive = no clear call, values can overlap the other calls; inactive = mostly above about 0.92. Some of the results follow.
Outcome codes: active, inactive

- MOLECULE: "C=CC(C1=CC(=O)C=CC1=O)c1ccccc1 (stereo not given)"
  DISCRETE LABEL: "inactive"
- MOLECULE: "CC(C)(C)NC[C@@H](O)COc1nsnc1N1CCOCC1"
  DISCRETE LABEL: "inactive"
- MOLECULE: "Nc1ncn([C@@H]2O[C@H](CO)[C@@H](O)[C@H]2O)c(=O)n1"
  DISCRETE LABEL: "inactive"
- MOLECULE: "Nc1ccc(S(=O)(=O)Nc2ccccn2)cc1"
  DISCRETE LABEL: "inactive"
- MOLECULE: "C=CC(C1=CC(=O)C(OC)=CC1=O)c1ccccc1 (stereo not given)"
  DISCRETE LABEL: "active"
- MOLECULE: "Nc1nc2c(ncn2C2C[C@H](O)[C@@H](CO)O2)c(=O)[nH]1 (stereo not given in full)"
  DISCRETE LABEL: "active"
- MOLECULE: "O=c1[nH]c(=O)n(C2C[C@@H](O)[C@@H](CO)O2)cc1F (stereo not given in full)"
  DISCRETE LABEL: "inactive"
- MOLECULE: "CC(=O)O[C@H]1C[C@@H](OC(C)=O)C(C)(C)C2C[C@@H](OC(C)=O)[C@@]3(C)C4=CC(=O)O[C@@H](c5ccoc5)[C@]4(C)CCC3[C@]21C (stereo not given in full)"
  DISCRETE LABEL: "inactive"
- MOLECULE: "Nc1ncnc2c1ncn2[C@@H]1O[C@H](CO)[C@@H](O)[C@H]1O"
  DISCRETE LABEL: "inactive"
- MOLECULE: "C=C[C@@H](C1=CC(=O)C(OC)=C(OC)C1=O)c1ccccc1"
  DISCRETE LABEL: "inactive"

---

# PROCEDURE TEXT: chemical genetic growth profiling, strain panel (AID 1159580);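 note: tested at 20 µM; growth read once vehicle control cultures reached saturation at 30 °C; 1 = growth at the plate median or of vehicle wells; lower values mean less growth of the strain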
# CONDITION SUMMARY: S. cerevisiae deletion strains, growth OD, locus YMR125W, strain sto1, hits give low values
Hit rate of the full screen: of about 5,500 compounds, about 2,000 (36%) were called active. Inconclusive results (about 18%) are left out. Some of the results follow.

- COMPOUND: "O=C(O)CF"
  normalized growth: 0.986
- COMPOUND: "CCOC(=O)c1oc2c(OC)c(O)cc(O)c2c(=O)c1-c1cc(OC)c(OC)c(OC)c1"
  normalized growth: 0.985
- COMPOUND: "O=C(O[C@@H]1Cc2c(O)cc(O)cc2O[C@@H]1c1cc(O)c(O)c(O)c1-c1c([C@H]2Oc3cc(O)cc(O)c3C[C@H]2O)cc(O)c(O)c1O)c1cc(O)c(O)c(O)c1"
  normalized growth: 1.04
- COMPOUND: "COc1cc2c(c(OC)c1OC)-c1ccc(OC)c(=O)cc1[C@@H](NC(C)=O)CC2"
  normalized growth: 1.01
- COMPOUND: "CC1(C)CCCC2(C)C3C1[C@@H](O)C2(C)C[C@H]3O (some centres undefined)"
  normalized growth: 1.04
- COMPOUND: "COc1cc(OC)c2c(=O)c(-c3ccccc3)c(C)oc2c1OC"
  normalized growth: 0.981
- COMPOUND: "CN/C(=C\\[N+](=O)[O-])NCCSCc1ccc(CN(C)C)o1"
  normalized growth: 0.982
- COMPOUND: "CCOP(=S)(OCC)SCn1c(=O)oc2cc(Cl)ccc21"
  normalized growth: 0.961
- COMPOUND: "CCCCC(CC)CN1CN(CC(CC)CCCC)CC(C)(N)C1 (centres undefined)"
  normalized growth: 0.0743
- COMPOUND: "CC(=O)Oc1ccc(Cl)c2cccnc12"
  normalized growth: 0.081
- COMPOUND: "C=CCC1(C(C)CCC)C(=O)N=C(S)NC1=O (centres undefined)"
  normalized growth: 0.923
- COMPOUND: "CCCC(C)C1(CC)C(=O)NC(=O)NC1=O (centres undefined)"
  normalized growth: 0.996
- COMPOUND: "CC(=O)Nc1cc([As](=O)(O)O)ccc1O"
  normalized growth: 1
- COMPOUND: "O=[N+]([O-])c1cc(O)c(O)c([N+](=O)[O-])c1"
  normalized growth: 1.01
- COMPOUND: "O=[N+]([O-])c1ccc(O)c([N+](=O)[O-])c1"
  normalized growth: 0.898
- COMPOUND: "C[n+]1cccc(C(=O)[O-])c1"
  normalized growth: 0.939
- COMPOUND: "CC1(C)C(C(Cl)Cl)C2(Cl)C(Cl)C(Cl)C1(Cl)C2(Cl)Cl (centres undefined)"
  normalized growth: 0.995
- COMPOUND: "C=CC(C1=CC(=O)C(OC)=CC1=O)c1ccc(OC)cc1 (centres undefined)"
  normalized growth: 0.779
- COMPOUND: "O=[N+]([O-])c1cc([As](=O)(O)O)ccc1O"
  normalized growth: 0.943
- COMPOUND: "CCCC(C)C1(CC)C(=O)N=C(S)NC1=O (centres undefined)"
  normalized growth: 0.974
- COMPOUND: "C[C@H]1[C@H]2CCC3C4CC=C5C[C@@H](N(C)C)CC[C@]5(C)C4CC[C@@]32CN1C (some centres undefined)"
  normalized growth: 0.947
- COMPOUND: "CC(=O)O[C@@H]1CC2C(C)(C)C=CC(=O)[C@]2(C)C2CC[C@@]3(C)[C@H](c4ccoc4)OC(=O)C4OC43[C@@]21C (some centres undefined)"
  normalized growth: 0.999
- COMPOUND: "Nc1ncn([C@@H]2O[C@H](CO)[C@@H](O)[C@H]2O)c(=O)n1"
  normalized growth: 0.962
- COMPOUND: "COc1ccccc1OCCNCC(O)COc1cccc2[nH]c3ccccc3c12 (centres undefined)"
  normalized growth: 1.01

---

// reported normalized growth per item
# PROCEDURE TEXT: chemical genetic growth profiling, strain panel (AID 1159580);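 note: tested at 20 µM; growth read once vehicle control cultures reached saturation at 30 °C; 1 = growth at the plate median or of vehicle wells; lower values mean less growth of the strain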
# CONDITION SUMMARY: S. cerevisiae deletion strains, growth OD, locus YLR342W, strain FKS1, hits give low values
Hit rate of the full screen: of about 5,500 compounds, about 2,000 (36%) were called active. Roughly 18% stayed inconclusive and do not appear here. Some of the results follow.

- COMPOUND: "Oc1c(Br)cc(Br)c2cccnc12"
  normalized growth: 0.0656
- COMPOUND: "C1CNCCN1"
  normalized growth: 1.02
- COMPOUND: "O=C1O[C@H](C(O)CO)C(O)=C1O (some centres not stated)"
  normalized growth: 0.98
- COMPOUND: "C[C@H]1[C@H]2CCC3C4CC=C5C[C@@H](N(C)C)CC[C@]5(C)C4CC[C@@]32CN1C (some centres not stated)"
  normalized growth: 0.991
- COMPOUND: "Oc1c(I)cc(I)c2cccnc12"
  normalized growth: 0.0814
- COMPOUND: "CC(C)(C)NCC(O)c1ccccc1Cl (configuration not stated)"
  normalized growth: 0.999
- COMPOUND: "CC(C)=CCC/C(C)=C/CC/C(C)=C/CC/C(C)=C/CC/C(C)=C/CC/C(C)=C/CC/C(C)=C/CC/C(C)=C/CC/C(C)=C/CO"
  normalized growth: 0.993
- COMPOUND: "Oc1c(I)cc(Cl)c2cccnc12"
  normalized growth: 0.0803
- COMPOUND: "CS(=O)(=O)CCCCN=C=S"
  normalized growth: 0.889
- COMPOUND: "CC(C)NCC(O)c1ccc2ccccc2c1 (configuration not stated)"
  normalized growth: 0.999
- COMPOUND: "CCN(CC)CCNC(=O)c1cc(S(C)(=O)=O)ccc1OC"
  normalized growth: 0.963
- COMPOUND: "CC(=O)Nc1ccc(S(=O)(=O)c2ccc(NC(C)=O)cc2)cc1"
  normalized growth: 1.01

---

# PROCEDURE TEXT: chemical genetic growth profiling, strain panel (AID 1159580);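 note: tested at 20 µM; growth read once vehicle control cultures reached saturation at 30 °C; 1 = growth at the plate median or of vehicle wells; lower values mean less growth of the strain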
# CONDITION SUMMARY: S. cerevisiae deletion strains, growth OD, locus YDR335W, strain msn5
The campaign covered roughly 5,500 compounds. About 2,000 (36%) were called active. Another 18% or so got no clear call; they are omitted. No stated cut-off is given here; in the data, active means normalized growth mostly below about 0.91 (no sharp cut-off); inconclusive means no clear call, values can overlap the other calls; inactive means mostly above about 0.92. Some of the results follow.
Classes used: active, inactive

- COMPOUND: "CCCCC(CC)CN1CN(CC(CC)CCCC)CC(C)(N)C1 (configuration not stated)"
  DISCRETE LABEL: "active"
- COMPOUND: "CN1C(CC(=O)c2ccccc2)CCCC1CC(O)c1ccccc1 (configuration not stated)"
  DISCRETE LABEL: "inactive"
- COMPOUND: "C=CC(C)(O)CC/C=C(\\C)CCC=C(C)C (configuration not stated)"
  DISCRETE LABEL: "inactive"
- COMPOUND: "O=C(O)/C=C/C=C/c1ccccc1"
  DISCRETE LABEL: "active"
- COMPOUND: "OC[C@@H]1CCCN2CCCC[C@H]12"
  DISCRETE LABEL: "inactive"
- COMPOUND: "CC(=O)/C(=C\\c1ccccc1)CC(=O)O"
  DISCRETE LABEL: "inactive"
- COMPOUND: "O=C1C=CC2=C3c4cc(O)c(O)cc4CC3(O)COC2=C1O (configuration not stated)"
  DISCRETE LABEL: "inactive"

Just for reference, PubChem BioAssay AID1159580 is where these values come from.
